For each entry below, report its Kd value.
- target or test system: T1, Recombinant human HER2 ectodomain (human, UniProt P04626 23-652, biotinylated on primary amines (for SPR and crude extract ELISA))
- T1 construct: extracellular domain; also called ErbB2; ectodomain of human HER2; not shown: Flag tag
- test method notes: SPR (ProteOn); biotinylated human HER2 on neutravidin chip, monovalent DARPin injected
One number for each entry, in nM.

Worked examples follow.
{"binder": "DARPin #19 (designed binder, monovalent) MRGSHHHHHHGSDLGKKLLEAARAGQDDEVRELLKAGADVNAKDEYGLTPLYLATAHGHLEIVEVLLKNGADVNAVDAIGFTPLHLAAFIGHLEIAEVLLKHGADVNAQDKSGKTPADLAAGAGHEDIAEVLQKLN", "reported": 0.944}
{"binder": "DARPin #17 (designed binder, monovalent) MRGSHHHHHHGSDLGLKLLQAANLGQDDEVRILLAAGADVNAKDSIGQTPLHWAARRGHLEIVEVLLKAGADVNAKDEYGVTPLHLAASLGHLEIVEVLLKAGADVNAQDTAGQTPADLAADDGHEDIAVVLQKLN", "reported": 2.3}
{"binder": "DARPin #52 (designed binder, monovalent) MRGSHHHHHHGSDLGVKLLWAAAHGQDDEVRILLAADADVNAKDWYGTTPLHIAAVAGHLEIVEVLLKAGADVNAKDDFGTTPLHAAADYGHLEIVEVLLKAGADVNAQDYTGHTPADLAAVYGHEDIAAVLQKLN", "reported": 0.137}

Next, consider the following binder.
What does the record list as Kd for DARPin #8 (designed binder, monovalent) MRGSHHHHHHGSDLGIKLLWAAAHGQDDEVRILLAADADVNAKDWYGTTPLHIAAVAGHLEIVEVLLKAGADVNAKDDFGTTPLHLAAYHGHLEIVEVLLKAGADVNAQDWQGQTPADLAAQDGHEDIAEVLQKLN ?
0.483

Reference source: patent US20150299265A1
